The reported numbers originate from patent US20230312564A1.

- runDescription: In-vivo pharmacokinetic parameters in mice
- Set-up: species or system Balb-c mice
- reportedConditions: male, Balb-c, mouse, plasma, IV, 1 mg/kg
measurementKind: half-life (h)
# value in h; strip the unit string

[[record]]
molecule = "COc1cc(F)cc([C@@H](CO)NC(=O)[C@@H](C)N2Cc3ccc(-c4nc(NC5CCOCC5)ncc4Cl)nc3C2=O)c1 [Embodiment 18]"
unitstring = "h"
testvalue = 1.2

[[record]]
molecule = "COc1cc(F)cc([C@@H](CO)NC(=O)[C@@H](C)N2Cc3ccc(-c4nc(NC5CCOCC5)ncc4F)c(F)c3C2=O)c1 [Embodiment 40]"
unitstring = "h"
testvalue = 0.6


The molecule identified as Cc1cccc([C@@H](CO)NC(=O)[C@@H](C)N2Cc3ccc(-c4nc(NC5CCOCC5)ncc4F)c(F)c3C2=O)c1 [Embodiment 31] registered its half-life at 1.4

Consider C[C@H](C(=O)N[C@H](CO)c1cccc(Cl)c1)N1Cc2ccc(-c3nc(NC4CCOCC4)ncc3F)c(F)c2C1=O [Embodiment 37] . Its measured half-life is 0.8

Value of measured half-life for the entry Cc1cccc([C@@H](CO)NC(=O)[C@@H](C)N2Cc3ccc(-c4nc(Nc5ccnn5C)ncc4Cl)c(F)c3C2=O)c1 [Embodiment 32] : 1

====

Overview of recorded AUC(0-t) for various molecules
- runDescription: In-vivo pharmacokinetic parameters in SD rats
- reportedConditions: male, rat, plasma, 5 mg/kg, PO, 5 mpk
Please don't drop the unit; write it after the number.

[[record]]
molecularstring = "C[C@H](C(=O)N[C@H](CO)c1cccc(Cl)c1)N1Cc2ccc(-c3nc(NC4CCOCC4)ncc3F)c(F)c2C1=O"
measurementkind = "AUC(0-t)"
testvalue = "0.446 µM·h"


# next molecule below
response.value for COc1cc(F)cc([C@@H](CO)NC(=O)[C@@H](C)N2Cc3ccc(-c4nc(NC5CCOCC5)ncc4F)c(F)c3C2=O)c1 (field: AUC(0-t)) = 0.432 µM·h

====

- runDescription: In-vivo pharmacokinetic parameters in SD rats
- reportedConditions: male, rat, plasma, 1 mg/kg, IV, 1 mpk
# reported AUC(0-t); entries follow
The reply should contain only the number, in µM·h.

[[record]]
molecularstring = "C[C@H](C(=O)N[C@H](CO)c1cccc(Cl)c1)N1Cc2ccc(-c3nc(NC4CCOCC4)ncc3F)c(F)c2C1=O"
unitstring = "µM·h"
testvalue = 0.536


Now look at this one.
What the record says about COc1cc(F)cc([C@@H](CO)NC(=O)[C@@H](C)N2Cc3ccc(-c4nc(NC5CCOCC5)ncc4F)c(F)c3C2=O)c1 : AUC(0-t) is 0.303

====

- runDescription: Liver microsomal metabolic stability, mouse
- Type: in vitro ADME
- reportedConditions: 0.5 mg/mL microsomes, 1 μM compound, NADPH
- Method: The reaction was stopped with tinidazole-containing acetonitrile at 0 min, 5 min, 10 min and 30 min, respectively. After vortexing for 10 min and centrifuging at 15,000 rmp for 10 min, 50 μL of the supernatant was injected into a 96-well plate. The metabolic stability of the compound was calculated by determining the relative reduction of the drug, calculated as half-life T1/2.
measurementKind: Liver microsomal stability T1/2
Hi, when you answer, please include the unit after the number. Thanks!

[[record]]
molecule = "Cc1cccc([C@@H](CO)NC(=O)[C@@H](C)N2Cc3ccc(-c4nc(NC5CCOCC5)ncc4F)c(F)c3C2=O)c1 [Embodiment 31]"
measurementkind = "Liver microsomal stability T1/2"
testvalue = "17 min"

[[record]]
molecule = "COc1cc(F)cc([C@@H](CO)NC(=O)[C@@H](C)N2Cc3ccc(-c4nc(NC5CCOCC5)ncc4Cl)c(F)c3C2=O)c1 [Embodiment 33]"
measurementkind = "Liver microsomal stability T1/2"
testvalue = "10 min"

[[record]]
molecule = "C[C@H](C(=O)N[C@H](CO)c1cccc(Cl)c1)N1Cc2ccc(-c3nc(NC4CCOCC4)ncc3Cl)c(F)c2C1=O [Embodiment 34]"
measurementkind = "Liver microsomal stability T1/2"
testvalue = "12 min"


The molecule listed as C[C@H](C(=O)N[C@H](CO)c1cccc(Cl)c1)N1Cc2ccc(-c3nc(NC4CCOCC4)ncc3F)c(F)c2C1=O [Embodiment 37] shows Liver microsomal stability T1/2 equal to 12 min
